molecular target: HDAC3 (Homo sapiens, UniProt O15379); assay: ELISA-based HDAC activity assay, HDAC3; conditions: read-out: Deacetylase activity (%) HDAC3
Sequence (O15379 whole entry): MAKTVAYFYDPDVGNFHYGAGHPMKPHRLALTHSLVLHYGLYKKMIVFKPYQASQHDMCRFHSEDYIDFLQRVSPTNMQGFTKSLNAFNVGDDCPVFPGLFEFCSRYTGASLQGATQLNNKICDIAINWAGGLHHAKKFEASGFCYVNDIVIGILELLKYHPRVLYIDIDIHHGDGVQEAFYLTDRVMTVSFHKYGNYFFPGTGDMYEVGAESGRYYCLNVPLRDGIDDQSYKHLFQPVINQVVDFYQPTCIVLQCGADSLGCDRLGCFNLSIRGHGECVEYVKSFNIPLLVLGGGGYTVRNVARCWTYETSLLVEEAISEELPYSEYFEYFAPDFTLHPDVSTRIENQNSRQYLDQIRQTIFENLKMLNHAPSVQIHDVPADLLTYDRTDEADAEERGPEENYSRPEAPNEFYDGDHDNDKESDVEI
Sequence (Q9Y618 whole entry partner): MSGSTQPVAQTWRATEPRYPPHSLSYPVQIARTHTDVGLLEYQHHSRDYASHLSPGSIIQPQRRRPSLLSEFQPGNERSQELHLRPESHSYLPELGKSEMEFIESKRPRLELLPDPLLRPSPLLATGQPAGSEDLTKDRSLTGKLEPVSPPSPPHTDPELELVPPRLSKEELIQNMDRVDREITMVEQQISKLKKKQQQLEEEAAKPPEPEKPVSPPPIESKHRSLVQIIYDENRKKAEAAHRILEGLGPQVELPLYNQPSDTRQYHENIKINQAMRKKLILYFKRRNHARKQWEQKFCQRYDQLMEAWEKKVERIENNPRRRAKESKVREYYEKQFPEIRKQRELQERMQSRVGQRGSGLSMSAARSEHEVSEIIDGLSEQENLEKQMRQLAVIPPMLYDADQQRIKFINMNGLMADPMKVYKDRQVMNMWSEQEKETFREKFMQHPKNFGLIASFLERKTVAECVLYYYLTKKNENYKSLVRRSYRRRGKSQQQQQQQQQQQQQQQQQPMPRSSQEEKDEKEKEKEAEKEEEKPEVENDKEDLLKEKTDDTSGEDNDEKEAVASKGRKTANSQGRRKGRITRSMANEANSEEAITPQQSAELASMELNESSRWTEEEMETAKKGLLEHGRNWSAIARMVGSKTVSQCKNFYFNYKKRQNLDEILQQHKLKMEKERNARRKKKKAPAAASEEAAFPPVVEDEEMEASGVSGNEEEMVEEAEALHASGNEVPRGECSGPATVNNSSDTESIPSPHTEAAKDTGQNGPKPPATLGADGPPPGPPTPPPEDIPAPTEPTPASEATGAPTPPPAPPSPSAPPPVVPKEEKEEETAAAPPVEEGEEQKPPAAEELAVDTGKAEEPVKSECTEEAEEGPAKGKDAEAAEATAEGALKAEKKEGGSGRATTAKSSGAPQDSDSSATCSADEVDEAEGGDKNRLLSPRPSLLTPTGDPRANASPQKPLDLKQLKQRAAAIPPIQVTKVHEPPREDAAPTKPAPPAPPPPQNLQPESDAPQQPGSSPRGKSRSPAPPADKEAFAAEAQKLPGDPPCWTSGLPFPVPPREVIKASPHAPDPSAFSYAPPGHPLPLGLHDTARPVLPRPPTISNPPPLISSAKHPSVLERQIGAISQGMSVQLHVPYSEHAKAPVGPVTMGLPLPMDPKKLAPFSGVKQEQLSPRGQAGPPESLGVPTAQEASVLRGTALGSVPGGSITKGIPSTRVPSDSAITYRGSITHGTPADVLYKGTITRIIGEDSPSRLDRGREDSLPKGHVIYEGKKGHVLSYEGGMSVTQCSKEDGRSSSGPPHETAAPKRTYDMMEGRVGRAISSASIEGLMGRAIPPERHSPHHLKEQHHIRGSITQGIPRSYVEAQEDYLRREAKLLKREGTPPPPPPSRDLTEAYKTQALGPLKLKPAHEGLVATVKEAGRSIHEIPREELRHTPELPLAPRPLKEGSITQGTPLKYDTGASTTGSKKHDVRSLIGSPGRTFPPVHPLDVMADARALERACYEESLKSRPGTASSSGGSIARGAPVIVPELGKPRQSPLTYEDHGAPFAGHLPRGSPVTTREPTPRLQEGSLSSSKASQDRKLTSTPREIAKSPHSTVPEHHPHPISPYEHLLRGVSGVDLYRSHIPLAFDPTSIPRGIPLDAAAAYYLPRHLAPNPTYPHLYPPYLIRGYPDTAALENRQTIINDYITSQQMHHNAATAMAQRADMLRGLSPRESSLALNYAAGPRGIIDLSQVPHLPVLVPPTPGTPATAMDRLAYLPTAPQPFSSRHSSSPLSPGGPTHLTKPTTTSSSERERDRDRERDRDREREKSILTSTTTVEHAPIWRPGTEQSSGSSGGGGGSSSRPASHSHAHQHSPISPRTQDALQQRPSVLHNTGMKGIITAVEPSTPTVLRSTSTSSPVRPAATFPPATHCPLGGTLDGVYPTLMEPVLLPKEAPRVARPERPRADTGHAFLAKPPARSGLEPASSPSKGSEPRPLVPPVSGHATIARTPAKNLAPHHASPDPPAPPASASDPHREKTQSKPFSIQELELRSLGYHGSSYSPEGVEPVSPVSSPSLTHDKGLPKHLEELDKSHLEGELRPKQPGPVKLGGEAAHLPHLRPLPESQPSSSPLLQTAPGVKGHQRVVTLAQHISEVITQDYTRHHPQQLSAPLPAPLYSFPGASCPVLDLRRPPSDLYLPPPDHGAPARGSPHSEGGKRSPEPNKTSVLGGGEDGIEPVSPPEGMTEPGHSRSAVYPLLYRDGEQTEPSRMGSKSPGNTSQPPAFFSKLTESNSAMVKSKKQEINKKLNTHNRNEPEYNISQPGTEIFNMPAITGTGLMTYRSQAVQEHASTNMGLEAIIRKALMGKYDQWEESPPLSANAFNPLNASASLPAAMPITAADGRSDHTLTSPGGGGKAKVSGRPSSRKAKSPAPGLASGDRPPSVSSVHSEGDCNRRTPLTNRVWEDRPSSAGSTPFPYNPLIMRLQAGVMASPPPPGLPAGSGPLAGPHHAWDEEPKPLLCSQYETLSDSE
recorded metric: activity at 10 µM (%)

O=C(CCC(CCCC(=O)Nc1ccccc1)Cc1ccccc1)NO (racemic) [Compound 1f] ... 87
CCCCCCC(CCCC(=O)Nc1ccccc1)CCC(=O)NO (racemic) [Compound 1d] ... 88
O=C(CC[C@H](CCCC(=O)Nc1ccccc1)Cc1ccccc1)NO [(S)-1f] ... 76
O=C(CC[C@@H](CCCC(=O)Nc1ccccc1)Cc1ccccc1)NO [(R)-1f] ... 77

###

target: UniProtKB Q13547; experiment: ELISA-based HDAC activity assay, HDAC1; settings: potency (IC50) with HDAC1, text, Table 4 value in μM
Sequence (Q13547 whole entry): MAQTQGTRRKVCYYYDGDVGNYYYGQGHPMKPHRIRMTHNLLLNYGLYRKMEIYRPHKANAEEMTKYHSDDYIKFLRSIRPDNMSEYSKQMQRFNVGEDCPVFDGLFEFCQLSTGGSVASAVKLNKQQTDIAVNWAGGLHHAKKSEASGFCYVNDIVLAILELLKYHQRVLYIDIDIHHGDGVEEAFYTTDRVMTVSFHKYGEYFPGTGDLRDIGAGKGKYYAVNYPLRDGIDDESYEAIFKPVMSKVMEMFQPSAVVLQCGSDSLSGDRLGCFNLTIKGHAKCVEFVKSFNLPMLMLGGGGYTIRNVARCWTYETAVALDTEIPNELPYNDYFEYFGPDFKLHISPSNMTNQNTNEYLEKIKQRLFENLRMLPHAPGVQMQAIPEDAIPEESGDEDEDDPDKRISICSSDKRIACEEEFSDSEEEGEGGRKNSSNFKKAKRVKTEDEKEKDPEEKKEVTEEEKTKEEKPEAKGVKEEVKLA
recorded metric: IC50 (µM)
Provide the reading as a plain figure in µM.

Provide IC50 value for the following molecule: O=C(CCC(CCCC(=O)Nc1ccccc1)Cc1ccccc1)NO (racemic) 29
